Test: sensitizers of A549 cells to miR-34 induction, primary screen, imaging, A549 dox-inducible miR-34, nuclei and caspase counts (AID 1347080); further: test concentration not given here
Details: A549 miR-34 inducible, Hoechst nuclei count, 48 h; active compounds read low; cell number ratio, induced over uninduced
Peptide text beside a SMILES is read from it.
Below, each entry is listed with its recorded fold change.

compound: C[C@@H](C1=C(CCN(C)C)Cc2ccccc21)c1ccccn1
fold change: 0.916
--
compound: Cc1[nH]ccc2c1[nH]c1cc(=O)ccc12
fold change: 0.837
--
compound: CC[C@H](c1ccc(O)cc1)[C@@H](CC)c1ccc(O)cc1
fold change: 0.78
--
compound: C[N+](C)(C)CC[N+]1(C)Cc2c(Cl)c(Cl)c(Cl)c(Cl)c2C1
fold change: 0.88
--
compound: O=C(O)CCn1c2c(c3ccccc31)C[C@H](NS(=O)(=O)c1ccc(F)cc1)CC2
fold change: 0.961
--
compound: O=C(O)c1ccc[n+]([O-])c1
fold change: 0.936
--
compound: CCC(C)(Oc1ccc(C2(c3ccc(OC(C)(CC)C(=O)O)cc3)CCCCC2)cc1)C(=O)O (configuration not stated)
fold change: 0.893
--
compound: CN(C)c1nc(N)c(C(=O)N=C(N)N)nc1Cl
fold change: 1.07
--
compound: c1cnc2cc3c(cc2n1)C1CNCC3C1
fold change: 1.05
--
compound: CN1CCCN=C1/C=C/c1cccs1
fold change: 0.92
--
compound: O=C(N[C@@H](Cc1ccccc1)C(=O)CCl)OCc1ccccc1
fold change: 1.3
--
compound: NS(=O)(=O)c1cc(C(=O)O)cc(N2CCCC2)c1Oc1ccccc1
fold change: 0.92
--
compound: COC(=O)[C@@H]1CC2=CC(=O)CC[C@]2(C)[C@@]23O[C@@H]2C[C@@]2(C)[C@@H](CC[C@@]24CCC(=O)O4)[C@H]13
fold change: 0.96
--
compound: CCN(CC)Cc1ccc(Nc2ccnc3cc(Cl)ccc23)cc1O
fold change: 0.936
--
compound: CC(=O)N[C@@H](CC(=O)O)C(=O)N[C@@H](CCC(=O)O)C(=O)O (Ac-Asp-Glu-OH)
fold change: 0.963
--
compound: FCOC(C(F)(F)F)C(F)(F)F
fold change: 0.911
--
compound: O=C1OC(=O)C2C3CCC(O3)C12 (configuration not stated)
fold change: 1.08
--
compound: Cn1c(=O)[nH]c2ncn(C)c2c1=O
fold change: 0.988
--
compound: O=S(=O)(O)Oc1ccc(C(c2ccc(OS(=O)(=O)O)cc2)c2ccccn2)cc1
fold change: 0.9
--
compound: C=CC1=C(C(=O)O)N2C(=O)[C@@H](NC(=O)/C(=N\O)c3csc(N)n3)[C@H]2SC1 (stereo in doubt)
fold change: 0.92
--
compound: CC(C)(C)NC[C@H](O)c1ccc(O)c(CO)c1
fold change: 0.873
--
compound: CC1(CN2CCC(n3c(=O)[nH]c4ccccc43)CC2)OCc2ccccc2-n2cccc21 (configuration not stated)
fold change: 0.899
